# targetUnderTest: T1, PUF4 RNA-binding domain (Saccharomyces cerevisiae, UniProt P25339 537-888)
# T1 sequence: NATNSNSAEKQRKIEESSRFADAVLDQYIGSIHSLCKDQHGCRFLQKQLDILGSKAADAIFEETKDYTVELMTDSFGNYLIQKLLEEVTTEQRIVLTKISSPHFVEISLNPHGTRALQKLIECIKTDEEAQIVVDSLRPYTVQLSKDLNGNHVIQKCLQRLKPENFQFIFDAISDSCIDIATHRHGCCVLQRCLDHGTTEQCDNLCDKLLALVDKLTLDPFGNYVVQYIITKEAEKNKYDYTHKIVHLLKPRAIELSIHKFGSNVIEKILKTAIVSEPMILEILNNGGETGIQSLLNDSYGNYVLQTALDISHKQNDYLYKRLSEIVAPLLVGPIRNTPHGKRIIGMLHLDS
# assay: Mg; RNA-MaP; 20 mM Na-HEPES pH 7.4, 30 mM KOAc, 0.75 mM MgCl2, 0.1% Tween-20, 5% glycerol, 0.1 mg/mL BSA, 2 mM DTT; 25 C; 0.0125-409.6 nM protein
# conditionsUsed: tags: N-His6-TEV cleaved; C-SNAP kept, Cy3B-labelled; label: tethered on chip by stalled RNA polymerase
metricName: pKd
Give bare numbers, as −log10 of the molar value.

Ib_S4_P3E.1_K3.1_C3.1_H3.1_A3.1_[A6G]_F3.1_[A8G]_T3.1 (ssRNA) RNA: UUUGACAACUGAUCGUUCUUUCUUGUAUGUGUUCUUUCUCGAUCAGUUGUCUUU = 7.42
Id_ii_S4_P3E.2_K3.1_C3.2_[C-2T]_[T-1C]_H3.1_A3.1_F3.1_T3.2_[T9A]_[A10C] (ssRNA) RNA: UUUGACAACUGAUCGUUCUUUCUUCUGUAUAUAACUUCUUUCUCGAUCAGUUGUCUUU = 8.53

Kindly review the next binder as well.
Note to self: pKd recorded for UCUCUUCAUAUAUAUAGCUCUCUU (ssRNA) [Id_ii_S1_P3E.3_K3.2_C3.2_[T-1A]_H3.2_A3.1_F3.1_T3.2_[T9G]_[A10C]] was 6.29

Sourced from paper PMC9352680
